test system: GPR40 (Homo sapiens)
Construct: expressed in transfected cells; host or cells: HEK293 cells stably expressing GPR40 (Hygromycin selection)
Sequence (O14842 whole entry): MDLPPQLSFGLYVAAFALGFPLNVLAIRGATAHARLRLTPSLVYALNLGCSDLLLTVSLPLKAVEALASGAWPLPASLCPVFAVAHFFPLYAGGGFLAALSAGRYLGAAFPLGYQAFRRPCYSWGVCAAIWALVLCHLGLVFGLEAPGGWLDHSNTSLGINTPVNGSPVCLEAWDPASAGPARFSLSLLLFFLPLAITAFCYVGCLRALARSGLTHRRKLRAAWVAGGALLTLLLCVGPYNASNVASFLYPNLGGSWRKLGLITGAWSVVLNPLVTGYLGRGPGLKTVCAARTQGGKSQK
assay details: IP1 accumulation assay in HEK293 cells stably expressing GPR40
Assay type: cell-based
particulars: Tables A-1a to A-7b (structure-property relationship); obtained by methods of Biological Example 1
Assignment: determine reported EC50 for the given compounds.
One number for each entry, in nM.

compound	EC50 / nM
COc1ccc(C(=O)N(CC(C)(C)CCn2cc(CCCCCCCCCCC(=O)NCC[N+](C)(CCC(=O)NCCN)CCC(=O)NCCN)nn2)c2cccc(C)n2)c(N2CCC(COc3cc([C@@H](CC(=O)O)C4CC4)ccn3)CC2)c1	6.27
COc1ccc(F)c(-c2ccc(COc3cccc([C@@H](CC(=O)O)C4CC4)c3)cc2CC(C)(C)Cc2cn(CCCCCCCCCCCCCCCC(=O)NCCN(CCC(=O)NCCN)CCC(=O)NCCN)nn2)c1	2.19
C[C@H](C(=O)O)[C@H](c1ccc2c(c1)O[C@@H](C1CCN(Cc3cc(-n4cc(CCCCCCCCCCC(=O)NCCN(CCC(=O)NCCN)CCC(=O)NCCN)nn4)ccc3OC(F)(F)F)CC1)CC2)C1CC1	183

// each compound listed below needs its EC50
1. COc1ccc(F)c(-c2ccc(COc3cccc([C@@H](CC(=O)O)C4CC4)c3)cc2CC(C)(C)Cc2cn(CCCCCCCCCCCCCC(=O)NCC[N+](C)(CCC(=O)NCCN)CCC(=O)NCCN)nn2)c1
2. COc1ccc(F)c(-c2ccc(COc3cccc([C@@H](CC(=O)O)C4CC4)c3)cc2CC(C)(C)Cc2cn(CCCCCCCCCC(=O)NCC[N+](C)(CCC(=O)NCCN)CCC(=O)NCCN)nn2)c1
3. COc1ccc(C(=O)N(CC(C)(C)CCn2cc(CCCCCCCCCCCCC(=O)NCCN(CCC(=O)NCCN)CCC(=O)NCCN)nn2)c2cccc(C)n2)c(N2CCC(COc3cc([C@@H](CC(=O)O)C4CC4)ccn3)CC2)c1
4. COc1ccc(F)c(-c2ccc(COc3cccc([C@@H](CC(=O)O)C4CC4)c3)cc2CC(C)(C)Cn2cc(CCCCCCCCCCC(=O)NCCN(CCC(=O)NCCN)CCC(=O)NCCN)nn2)c1
5. C[C@H](C(=O)O)[C@H](c1ccc2c(c1)O[C@@H](C1CCN(Cc3cc(-n4cc(CCCCCCCCCCCCCCCC(=O)NCCN(CCC(=O)NCCN)CCC(=O)NCCN)nn4)ccc3OC(F)(F)F)CC1)CC2)C1CC1
6. C[C@H](C(=O)O)[C@H](c1ccc2c(c1)O[C@@H](C1CCN(Cc3cc(-n4cc(CCCCCCCCCCCCC(=O)NCC[N+](C)(CCC(=O)NCCN)CCC(=O)NCCN)nn4)ccc3OC(F)(F)F)CC1)CC2)C1CC1
7. COc1ccc(C(=O)N(CC(C)(C)CCn2cc(CCCCCCCCCCCCCC(=O)NCCC[N+](C)(CC(=O)[O-])CC(=O)O)nn2)c2cccc(C)n2)c(N2CCC(COc3cc([C@@H](CC(=O)O)C4CC4)ccn3)CC2)c1 (stereo partly drawn)

Found:
1. 49
2. 1050
3. 0.42
4. 1760
5. 0.05
6. 9.46
7. 0.88
